B1: Azoarcus group I ribozyme (parent)
chain: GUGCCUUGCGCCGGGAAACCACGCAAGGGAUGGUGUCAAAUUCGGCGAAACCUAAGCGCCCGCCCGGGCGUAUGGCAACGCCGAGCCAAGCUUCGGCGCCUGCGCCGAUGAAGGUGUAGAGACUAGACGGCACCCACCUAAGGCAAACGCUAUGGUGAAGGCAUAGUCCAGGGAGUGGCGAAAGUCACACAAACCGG

variants of: B1; experiment: reverse-splicing fitness (ratio to wild type); higher = more active; in vitro selection; Mg2+ level not given
A collection of variants and their measured reverse-splicing fitness
Number only, no unit.

A selection of reference data follows.
| Variant key | reverse-splicing fitness |
| --- | --- |
| C82G A120U A145U C150A U176A | 0.0083 |
| C82G A111C A120G A145C C150A C169G U176A | 0.0248 |
| A111G A120U A145G C150U C169G U176C | 0.0118 |
| C82U A111C A120U A145U C150G | 0.00613 |

Challenge: Quick one: reverse-splicing fitness for C82U A111G A120G A145U C150U U176G ?
Response given: 0.00411

Challenge: Now the same for C82A A120U A145U C150A U176A
Response given: 0.00611

Challenge: Now the same for C82U A120G A145U
Response given: 0.0237

Challenge: Now the same for C82G A120C A145C U176G
Response given: 0.0157

Challenge: Now the same for C82A A111U A120C C150G C169A U176G
Response given: 0.00717

Challenge: Now the same for A111C A120G A145G C150A C169U U176A
Response given: 0.0227

Challenge: Now the same for A120G A145G C150U C169A U176G
Response given: 0.0072
